Biological target: Receptor-type tyrosine-protein kinase FLT3 (Homo sapiens)
Sequence (P36888 whole entry, the tested form may be a part): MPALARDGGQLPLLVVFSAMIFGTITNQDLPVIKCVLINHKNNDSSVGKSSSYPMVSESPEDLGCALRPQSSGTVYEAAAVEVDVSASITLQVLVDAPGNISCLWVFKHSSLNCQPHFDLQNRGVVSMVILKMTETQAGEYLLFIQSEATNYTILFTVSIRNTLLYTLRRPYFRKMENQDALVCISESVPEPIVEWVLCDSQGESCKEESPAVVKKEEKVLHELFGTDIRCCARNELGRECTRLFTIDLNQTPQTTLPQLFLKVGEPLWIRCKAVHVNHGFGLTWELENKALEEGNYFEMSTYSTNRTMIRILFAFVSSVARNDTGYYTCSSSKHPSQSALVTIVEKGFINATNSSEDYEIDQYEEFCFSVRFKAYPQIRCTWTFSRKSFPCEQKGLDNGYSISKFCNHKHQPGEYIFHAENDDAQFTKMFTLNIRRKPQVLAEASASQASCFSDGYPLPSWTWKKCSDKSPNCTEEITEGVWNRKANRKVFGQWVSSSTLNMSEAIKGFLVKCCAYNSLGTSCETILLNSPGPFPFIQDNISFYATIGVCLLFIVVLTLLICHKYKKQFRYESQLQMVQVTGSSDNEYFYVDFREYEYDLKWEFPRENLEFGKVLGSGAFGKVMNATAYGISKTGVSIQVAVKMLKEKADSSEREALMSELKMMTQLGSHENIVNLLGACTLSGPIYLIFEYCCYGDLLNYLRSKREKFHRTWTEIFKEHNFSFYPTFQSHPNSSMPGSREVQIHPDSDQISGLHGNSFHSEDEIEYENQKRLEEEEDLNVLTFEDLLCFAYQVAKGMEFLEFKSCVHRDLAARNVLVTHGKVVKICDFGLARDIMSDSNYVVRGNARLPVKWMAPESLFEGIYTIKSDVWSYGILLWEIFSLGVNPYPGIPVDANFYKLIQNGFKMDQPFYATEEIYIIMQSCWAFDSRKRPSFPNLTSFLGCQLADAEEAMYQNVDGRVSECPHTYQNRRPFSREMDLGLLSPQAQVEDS
Assay: Inhibition of His6/TEV fused-GST-tagged Flt3 (unknown origin) (H564 to S993 residues) using Axltide (CKKSRGDYMTMQJ-acid) peptide as substrate preincubated for 30 mins followed by substrate and ATP addition at Km concentration measured after 75 mins by RapidFire LC-MS analysis
pIC50: −log10 of the molar value.
observation_type: pIC50

>>> quantitative_result("CN(Cc1ccc2nccn2c1)c1nnc(-c2ccc(-c3ccccc3Cl)nc2)o1")
4.80

[1] CCn1c(-c2nnc(N(C)Cc3ccc4nccn4c3)o2)nc2ccccc21
[2] CN(Cc1ccc2nccn2c1)c1nnc(-c2ccc(-c3ccccc3Cl)cc2)o1
[3] COc1cc2c(Nc3cnc(OCCCC4CCCC4)nc3)ncnc2cc1OCCCN1CCCCC1
[4] Cc1c(C(=O)Nc2ccc(Oc3ccnc4[nH]cc(-c5ccccc5)c34)c(F)c2)c(=O)n(-c2ccc(F)cc2)n1C
[5] CNC(=O)c1sc(N2CC3CC2(CNC(=O)c2c[nH]c4ncc(Cl)cc24)C3)nc1C(F)(F)F
Query: Please give the order of these molecules when sorted by pIC50, largest value leading. Output spec: labels arranged per the requested ranking.
Response: 3, 4, 5, 1, 2
(3: 7.70, 4: 7.20, 5: 5.80, 1: 5.20, 2: 4.80)
